From: patent US20230365602A1

Target: CYP2C19 (Homo sapiens)
Sequence (P33261 whole entry): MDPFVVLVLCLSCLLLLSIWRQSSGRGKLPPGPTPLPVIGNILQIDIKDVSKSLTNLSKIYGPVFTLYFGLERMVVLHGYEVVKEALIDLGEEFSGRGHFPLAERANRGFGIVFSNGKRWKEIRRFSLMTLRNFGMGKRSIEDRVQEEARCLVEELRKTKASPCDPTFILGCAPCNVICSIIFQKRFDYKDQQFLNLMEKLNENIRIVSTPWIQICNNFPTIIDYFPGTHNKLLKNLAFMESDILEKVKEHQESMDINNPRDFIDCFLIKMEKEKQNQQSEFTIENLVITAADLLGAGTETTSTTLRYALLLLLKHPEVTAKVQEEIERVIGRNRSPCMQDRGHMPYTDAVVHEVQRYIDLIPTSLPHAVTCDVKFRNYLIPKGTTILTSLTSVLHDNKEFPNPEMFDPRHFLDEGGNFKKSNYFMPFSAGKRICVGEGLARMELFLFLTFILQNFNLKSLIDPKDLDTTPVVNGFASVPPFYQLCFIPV
Assay: Early toxicity: CYP2C19 inhibition
Assay type: in vitro ADME
Settings: human, mean ± SD, Table 4a
Class 1 (yes): inhibition at 10 µM at least 20%. Class 0 (no): inhibition at 10 µM below 20%.

Entry C[N+](C)(C)CCOP(=O)([O-])OCCCCC1CCCCCCCCCCCCCC1 : is its inhibition at 10 µM no less than 20%?
1 (yes)

Is reported inhibition at 10 µM greater than or equal to 20% here: C[N+](C)(C)CCOP(=O)([O-])OCCC1CCCCCCCCCCC1
0 (no)

Decide: is the reported value of inhibition at 10 µM for C[N+](C)(C)CCOP(=O)([O-])OCCC1CCCCCCCCCCCCCC1 equal to or greater than 20%?
1 (yes)

hey, is inhibition at 10 µM for this one >= 20%? C[N+](C)(C)CCOP(=O)([O-])OCCCCCC1CCCCCCCCCCC1
1 (yes)

# bool: inhibition at 10 µM of CCCCCCCCCCCCCCCCOP(=O)([O-])OCC[N+](C)(C)C [Miltefosine, hexadecylphosphocholine, reference compound] >= 20%
0 (no)

Is it the case that C[N+](C)(C)CCOP(=O)([O-])OCCCCC=C1CCCCCCCCCCC1 has inhibition at 10 µM reaching or exceeding 20%?
0 (no)

Is it the case that C[N+](C)(C)CCCOP(=O)([O-])OCCCCC=C1CCCCCCCCCCCCCC1 has inhibition at 10 µM reaching or exceeding 20%?
1 (yes)

Answer whether inhibition at 10 µM of C[N+](C)(C)CCOP(=O)([O-])OCCCCCC1CCCCCCCCCCCCCC1 is greater than or equal to 20%.
0 (no)

---

Test: Snapshot pharmacokinetics in plasma after oral gavage
Type: in vivo, mice
Conditions: mouse, plasma, po; healthy BALB/c mice, 20 mg/kg gavage; Table 13; read-out: tmax
Protocol: Pharmacology of 5-cyclopentadecylpentyl (2-(trimethylammonio)ethyl) phosphate (19) in mice. Blood samples were collected from the tail vein at 0, 0.5, 0.75, 1, 3, 24 and 72 hours into heparinized tubes. Moreover, biodistribution of the molecule, 72h after administration, was determined in several organs of the treated mice, namely brain, liver, spleen, kidney, heart and bone marrow. […] J Chromatogr B, 865: 55-62) by liquid chromatography mass spectrometry (LC-MS/MS).
METRIC: Tmax (h)
Quick reminder: number only, in h, skip the unit.

Kindly note the recorded Tmax for C[N+](C)(C)CCOP(=O)([O-])OCCCCC1CCCCCCCCCCCCCC1 [Compound 18] , which is 5

Entry C[N+](C)(C)CCOP(=O)([O-])OCCCCCC1CCCCCCCCCCC1 [Compound 17] , Tmax reported as 3

The molecule listed as C[N+](C)(C)CCOP(=O)([O-])OCCCCCC1CCCCCCCCCCCCCC1 [Compound 19] shows Tmax equal to 24

---

Test system: A549
Assay: Early toxicity: A549 cell growth
Assay type: cell-based
Conditions: 10 μM; 100% = not cytotoxic, 0% = cytostatic, −100% = cytotoxic
METRIC: % cell growth A549 (%)
The answer is to be given in %; state only the numeric part.

C[N+](C)(C)CCOP(=O)([O-])OCCC1CCCCCCCCCCCCCC1 yielded % cell growth A549 of 120.79

Looking up C[N+](C)(C)CCOP(=O)([O-])OCCCCCC1CCCCCCCCCCCCCC1 , I found its % cell growth A549 recorded as 108.28

Kindly note the recorded % cell growth A549 for C[N+](C)(C)CCCOP(=O)([O-])OCCCCC=C1CCCCCCCCCCCCCC1 , which is 112.20

response.value for C[N+](C)(C)CCOP(=O)([O-])OCCCCC=C1CCCCCCCCCCC1 (field: % cell growth A549) = 130.21

% cell growth A549 for C[N+](C)(C)CCCOP(=O)([O-])OCCCCCC1CCCCCCCCCCCCCC1 is 104.50

Reported % cell growth A549 for C[N+](C)(C)CCOP(=O)([O-])OCCC1CCCCCCCCCCC1 was 126.46

The reported % cell growth A549 of the compound C[N+](C)(C)CCOP(=O)([O-])OCCCCC1CCCCCCCCCCCCCC1 was 132.80

So, C[N+](C)(C)CCOP(=O)([O-])OCCCCCC1CCCCCCCCCCC1 ? Its % cell growth A549 was 121.61

---

Tested on: mitochondria
Experiment: Early toxicity: mitochondrial toxicity
Format: cell-based
Conditions: 10 μM; 100% mitotoxic, 0% not mitotoxic
Assignment: determine reported % mitochondrial toxicity for the given compounds.
Please state the figure in %; there is no need to write the unit.

Entry C[N+](C)(C)CCCOP(=O)([O-])OCCCCC=C1CCCCCCCCCCCCCC1 , tested on mitochondria, has a reported % mitochondrial toxicity of 1.08

Measured % mitochondrial toxicity for this entry C[N+](C)(C)CCOP(=O)([O-])OCCCCC=C1CCCCCCCCCCC1 on mitochondria: 113.57

Simply: C[N+](C)(C)CCOP(=O)([O-])OCCC1CCCCCCCCCCC1 , mitochondria, % mitochondrial toxicity = 113.87

Item C[N+](C)(C)CCOP(=O)([O-])OCCCCC1CCCCCCCCCCCCCC1 was tested on mitochondria; the reported % mitochondrial toxicity is 109.49

GET /values?item= C[N+](C)(C)CCOP(=O)([O-])OCCCCCC1CCCCCCCCCCCCCC1 &system= mitochondria returns % mitochondrial toxicity: −3.22

Item: C[N+](C)(C)CCOP(=O)([O-])OCCCCCC1CCCCCCCCCCC1 | System: mitochondria | % mitochondrial toxicity: 110.46

Lab note: compound C[N+](C)(C)CCOP(=O)([O-])OCCC1CCCCCCCCCCCCCC1 tested on mitochondria; recorded % mitochondrial toxicity was 119.09

Tested system mitochondria; % mitochondrial toxicity recorded for C[N+](C)(C)CCCOP(=O)([O-])OCCCCCC1CCCCCCCCCCCCCC1 was −3.82
